Hello, the source for this data is patent US20030219467A1, in case you need it.

# System: M. marburgensis
# test: microbe, parasite or virus in culture
# Type: cell-based
# condition parameters: Methanothermobacter marburgensis; H2/CO2-grown, 65° C., OD 580 nm; words refer to 1 millimolar; read-out: Inhibition of Growth M. marburgensis: concentration of compound which completely inhibited growth
assay endpoint: MIC (µM)

# sample smiles, value measured
rows = [
    ("Nc1ccc(/C=C/C(=O)O)cc1", 500),
    ("O=C(O)c1ccc(NC2CCCC2)cc1", 1000),
    ("CC(C)CNc1ccc(C(=O)O)cc1", 500),
    ("Nc1nc(CC(=O)O)cs1", 500),
    ("O=C(O)c1ccc(NCc2ccc(O)cc2)cc1", 300),
    ("O=C(O)Cc1ccc(NCc2ccco2)cc1", 1000),
    ("Nc1cc(C(=O)O)ccn1", 1000),
    ("N[C@H]1CC[C@H](C(=O)O)CC1", 500),
    ("O=C(O)c1ccc(NCCO)cc1", 300),
    ("OCc1ccc([C@@H]2N[C@H](CO)[C@@H](O)[C@H]2O)cc1", 1000),
    ("O=C(O)c1ccc(NCc2ccccc2O)cc1", 1000),
]
